Target: T1, SHANK1, Q9Y566
T1 sequence (Q9Y566 658-767, limits assumed, looked up): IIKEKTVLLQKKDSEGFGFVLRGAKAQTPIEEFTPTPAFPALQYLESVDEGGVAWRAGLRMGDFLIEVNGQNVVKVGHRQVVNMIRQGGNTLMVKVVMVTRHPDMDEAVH
Assay: holdup assay
Design: key: below the threshold = too weak to quantify, mostly under pKd 3.1 to 4
Details: plain residues with an end cap or a label only (N-terminal biotin on a linker: ado-ado)
Measured Quantity: pKd

Please review the entries below; each comes with its answer.
# Binder, pKd
data = [
    ("LPPPESESKV [KCNJ9, Q92806]", "below the threshold"),
    ("PSVYSRSQYV [CLDN8, P56748]", "below the threshold"),
    ("DFKHTKSFII [JAM2, P57087]", "below the threshold"),
    ("ADEMICITTL [CACNA1D, Q01668]", 5.28),
    ("MLPANYVEAI [NEB, P20929]", "below the threshold"),
]

Identify measured pKd corresponding to PKSNSSKEYV [CLDN7, O95471]
below the threshold

Using known records, supply pKd for STYCDYTIEI [FAM71C, Q8NEG0]
below the threshold

Indicate its recorded pKd; the binder in question is MQILSKPEFI [NPSR1, Q6W5P4]
below the threshold

Please report the measured pKd for GQNMTVSVVI [PRLHR, P49683]
below the threshold

Provide only the value of recorded pKd for IGHEDLETAV [DGKI, O75912]
4.41

This collection of values is drawn from paper PMC9482650.
